Cited source: patent US12590062B2

# TARGET_OF_ASSAY: PD-1/PD-L1 (Homo sapiens)
# Sequence (Q9NZQ7 19-238 limits assumed): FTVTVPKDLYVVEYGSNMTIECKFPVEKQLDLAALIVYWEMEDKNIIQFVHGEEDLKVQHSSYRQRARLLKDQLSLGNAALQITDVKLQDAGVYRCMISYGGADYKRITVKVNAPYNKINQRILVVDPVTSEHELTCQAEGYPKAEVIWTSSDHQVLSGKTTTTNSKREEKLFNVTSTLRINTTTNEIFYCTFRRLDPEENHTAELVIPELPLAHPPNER
# PROTOCOL_DETAILS: PD-1/PD-L1 biochemical protein-protein interaction assay (ALPHA)
# CONDITION_DETAILS: 0.3 nM His tagged PD-L1, 2.5 nM biotinylated Fc-PD-1, 60 minutes at 25° C., read-out: IC50 PD-L1-PD-1 Alpha IC50-mono PD-L1-fcP-D1
TEST_READOUT: IC50 (nM)

(1) Cc1c(COc2cc(OCc3cncc(C#N)c3)c(CN[C@H]3CCCC[C@@H]3O)cc2Cl)cccc1-c1cccc(-c2cccc(OCCNCCO)c2)c1C
(2) COc1nc(O[C@H]2CCc3c(-c4cccc(-c5cnc(CN[C@@H]6CCC[C@@H]6O)c(OC)n5)c4Cl)cccc32)c(Cl)cc1CN[C@@H]1CCC[C@@H]1O
(3) COc1nc(O[C@H]2CCc3c(-c4cccc(-c5cnc(CNC[C@@H]6CCC(=O)N6)c(OC)n5)c4Cl)cccc32)c(Cl)cc1CN1CC[C@@H](C(=O)O)C1
Enquiry: Descending sort on IC50 required. Lab note: record answer as labels in requested order.
Return: 1, 2, 3
